molecular target: NPEPPS (Homo sapiens); construct: endogenous in cells; experiment: Cell-based NPEPPS activity assay (Q-AMC fluorescence); conditions: log10 transformed; EC50 = concentration that elevates 50% NPEPPS activity (150% of DMSO baseline); HEK293T cells
Sequence (P55786 whole entry): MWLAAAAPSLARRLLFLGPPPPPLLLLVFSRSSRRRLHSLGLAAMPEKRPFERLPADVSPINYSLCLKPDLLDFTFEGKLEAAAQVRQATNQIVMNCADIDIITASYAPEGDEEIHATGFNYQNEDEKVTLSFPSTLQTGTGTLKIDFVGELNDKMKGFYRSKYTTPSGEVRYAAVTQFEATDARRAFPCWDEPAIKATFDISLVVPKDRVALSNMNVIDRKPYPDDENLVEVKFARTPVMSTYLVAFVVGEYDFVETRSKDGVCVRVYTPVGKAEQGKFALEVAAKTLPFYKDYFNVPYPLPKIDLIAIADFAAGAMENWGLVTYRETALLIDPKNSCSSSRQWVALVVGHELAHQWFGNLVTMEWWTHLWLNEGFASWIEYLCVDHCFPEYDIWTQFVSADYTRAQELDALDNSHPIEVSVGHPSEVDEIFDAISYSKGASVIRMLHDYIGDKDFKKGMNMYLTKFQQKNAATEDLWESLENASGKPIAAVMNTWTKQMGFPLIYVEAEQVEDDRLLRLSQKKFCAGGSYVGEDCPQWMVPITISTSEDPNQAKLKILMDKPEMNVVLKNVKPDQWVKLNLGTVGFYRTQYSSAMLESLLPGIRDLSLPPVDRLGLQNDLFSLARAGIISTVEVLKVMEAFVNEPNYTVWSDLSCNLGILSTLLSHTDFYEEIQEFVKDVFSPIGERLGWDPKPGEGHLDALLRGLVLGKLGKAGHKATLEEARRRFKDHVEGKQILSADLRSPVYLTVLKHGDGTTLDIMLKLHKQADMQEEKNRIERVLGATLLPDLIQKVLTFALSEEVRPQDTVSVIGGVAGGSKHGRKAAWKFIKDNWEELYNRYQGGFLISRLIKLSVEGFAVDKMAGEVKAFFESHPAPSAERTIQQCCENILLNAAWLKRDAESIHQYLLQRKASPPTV
pEC50: −log10 of the molar value.
Please note: y applies when pEC50 is 4 or greater, and n applies otherwise.

# compound smiles, class
records = [
    ("c1ccc(COc2ccc3snc(NCc4ccc(-c5ccccc5)cc4)c3c2)cc1", "y"),
    ("c1ccc2c(NCc3ccncn3)nsc2c1", "y"),
    ("c1ccc(COc2ccc(CNc3nsc4cnccc34)cc2)cc1", "y"),
    ("CCCCCCN(Cc1ccc(C(F)(F)F)cc1)c1nsc2ccccc12", "y"),
    ("CN(Cc1ccc(OCc2ccccc2)cc1)c1nsc2ccccc12", "n"),
    ("C#Cc1cccc2c(NCc3ccc(C(F)(F)F)cc3)nsc12", "y"),
    ("c1cc(CNc2nsc3ccccc23)c2cc[nH]c2c1", "n"),
    ("FC(F)(F)c1ccc(CNc2nsc3ccccc23)c(C(F)(F)F)c1", "y"),
    ("COc1ccc(CCNc2nsc3ccccc23)cc1OC", "n"),
    ("COc1ccc(CNc2ncccn2)cc1OC", "n"),
    ("COC(=O)c1ccc(CNc2nsc3ccccc23)cc1", "n"),
    ("Fc1ccc(COc2ccc(CNc3nsc4ccc(OCc5ccccc5)cc34)cc2)cc1", "y"),
    ("FC(F)(F)c1ccc(CNc2nsc3ccc(OCc4ccc(C(F)(F)F)cc4)cc23)cc1", "y"),
    ("c1ccc(COc2ccc(CNc3nsc4ccccc34)cc2)cc1", "y"),
    ("Fc1cc(Cl)ccc1CNc1nsc2ccccc12", "n"),
    ("Fc1cccc2c(NC(c3ccccc3)c3ccccc3)nsc12", "y"),
    ("CCN(Cc1ccc(C(F)(F)F)cc1)c1nsc2ccccc12", "y"),
]
